Target: biotinylated labeled human GPC3 protein (produced in-house) (human, UniProt P51654 25-559, limits assumed, biotinylated (Dojindo, Cat. No. LK03); sites not stated)
Assay: ELISA, biotinylated human GPC3 protein
Listed here are binders together with their documented OD450 at 0.056 nM.

{"BINDER": "GC33 IgG (antibody, V domains shown, Control antibody expressed as complete IgG; also called codrituzumab) VH: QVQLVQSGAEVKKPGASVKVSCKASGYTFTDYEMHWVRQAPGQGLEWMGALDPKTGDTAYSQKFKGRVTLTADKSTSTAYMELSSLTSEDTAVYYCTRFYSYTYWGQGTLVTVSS VL: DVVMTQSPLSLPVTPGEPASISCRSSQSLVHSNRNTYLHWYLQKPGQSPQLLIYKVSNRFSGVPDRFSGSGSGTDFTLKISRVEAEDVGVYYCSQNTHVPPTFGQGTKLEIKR", "OD450 at 0.056 nM (OD450)": 0.442}
{"BINDER": "hAb006LH3L1d (antibody, human IgG1, V domains shown, Humanized F3.38.7; VH H3 + VL L1d; expressed as human IgG1) VH: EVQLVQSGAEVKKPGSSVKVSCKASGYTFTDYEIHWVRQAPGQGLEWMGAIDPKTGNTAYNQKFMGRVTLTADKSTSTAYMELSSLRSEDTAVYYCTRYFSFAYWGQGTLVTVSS VL: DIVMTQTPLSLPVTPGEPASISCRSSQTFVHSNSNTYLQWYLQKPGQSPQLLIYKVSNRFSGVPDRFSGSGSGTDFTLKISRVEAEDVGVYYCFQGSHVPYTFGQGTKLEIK", "OD450 at 0.056 nM (OD450)": 0.59}
{"BINDER": "hAb007LH1L1d (antibody, human IgG1, V domains shown, Humanized F3.81.19; VH H1 + VL L1d; expressed as human IgG1) VH: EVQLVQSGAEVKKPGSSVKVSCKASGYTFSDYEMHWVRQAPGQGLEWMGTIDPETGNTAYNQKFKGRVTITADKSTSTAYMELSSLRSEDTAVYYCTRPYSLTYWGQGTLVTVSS VL: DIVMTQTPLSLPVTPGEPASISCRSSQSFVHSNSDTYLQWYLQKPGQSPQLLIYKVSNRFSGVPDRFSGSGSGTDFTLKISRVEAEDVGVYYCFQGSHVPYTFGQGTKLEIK", "OD450 at 0.056 nM (OD450)": 0.16}
{"BINDER": "hAb006LH3L1c (antibody, human IgG1, V domains shown, Humanized F3.38.7; VH H3 + VL L1c; expressed as human IgG1) VH: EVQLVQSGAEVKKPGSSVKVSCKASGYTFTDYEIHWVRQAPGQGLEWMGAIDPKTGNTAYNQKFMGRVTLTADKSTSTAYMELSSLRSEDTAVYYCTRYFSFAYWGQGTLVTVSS VL: DIVMTQTPLSLPVTPGEPASISCRSSQTFVHSNRNTYLQWYLQKPGQSPQLLIYKVSNRFSGVPDRFSGSGSGTDFTLKISRVEAEDVGVYYCFQGSHVPYTFGQGTKLEIK", "OD450 at 0.056 nM (OD450)": 0.756}
